Readings of % Inhibition for the listed molecules
- Test system: Brain-specific Receptors of Rats (^3 H-benzodiazepine binding)
- assayExplanation: Inhibition of the Binding of ^3 H--Benzodiazepine to Brain-specific Receptors of Rats
- Parameters: species or system rats (male albino, Wistar strain)
- condition: 1 μM; whole cortex of rats, P2 fraction; ^3 H-diazepam (1.5 nM) or ^3 H-flunitrazepam (1.0 nM)

>  <chemSmiles>
c1ccc(-c2ccn3cnnc3c2)nc1

>  <% Inhibition, %>
15

$$$$
>  <chemSmiles>
Cc1nnc2c(-c3ccccn3)cccn12

>  <% Inhibition, %>
22

$$$$
>  <chemSmiles>
Cc1nnc2cc(-c3ccccn3)ccn12

>  <% Inhibition, %>
27

$$$$
>  <chemSmiles>
c1cncc(-c2ccc3nncn3c2)c1

>  <% Inhibition, %>
13

$$$$
>  <chemSmiles>
c1ccc(-c2cccc3nncn23)nc1

>  <% Inhibition, %>
26

$$$$
>  <chemSmiles>
c1cncc(-c2cccn3cnnc23)c1

>  <% Inhibition, %>
18

$$$$
>  <chemSmiles>
Cc1nnc2cc(-c3ccncc3)ccn12

>  <% Inhibition, %>
24

$$$$
>  <chemSmiles>
c1ccc(-c2cccn3cnnc23)nc1

>  <% Inhibition, %>
26

$$$$
>  <chemSmiles>
Cc1nnc2ccc(-c3cccnc3)cn12

>  <% Inhibition, %>
20

$$$$
>  <chemSmiles>
Cc1nnc2c(-c3cccnc3)cccn12

>  <% Inhibition, %>
24

$$$$
